// provenance: patent US7951815B2

Below is a list of entries, each paired with its recorded BTX inhibition value.
System: batrachotoxin (BTX) binding site of the sodium channel
Experiment: Affinity to the batrachotoxin (BTX) binding site of the sodium channel
Details: Table III; rat cerebrocortex synaptosomes; test concentration not given

{"columns": ["molecule", "BTX inhibition"],
 "data": [
  ["COC(=O)c1ccc(CN2C(=O)C(C(C)C)NC23CCN(C(=O)CC(C)(C)C)CC3)cc1 (stereo not shown)", 30],
  ["C#CCN1C(=O)C(CCSC)NC12CCN(C(=O)c1ccc(-c3ccccc3)cc1)CC2 (stereo not shown)", 43],
  ["CCCCN1C(=O)C(C(C)C)NC12CCN(C(=O)CC1CCCC1)CC2 (stereo not shown)", 42],
  ["CSCCC1NC2(CCN(C(=O)c3c(-c4c(F)cccc4Cl)noc3C)CC2)N(Cc2cccc(C#N)c2)C1=O (stereo not shown)", 43],
  ["CC(C)CC1NC2(CCN(C(=O)c3ccc(Cl)nc3)CC2)N(Cc2c(Cl)cccc2Cl)C1=O (stereo not shown)", 60],
  ["CC(C)CC1NC2(CCN(C(=O)CCC3CCCC3)CC2)N(Cc2ccccc2F)C1=O (stereo not shown)", 62],
  ["CC(C)CC1NC2(CCN(C(=O)c3cccnc3Cl)CC2)N(Cc2ccc(F)cc2)C1=O (stereo not shown)", 44],
  ["CCSc1ncccc1C(=O)N1CCC2(CC1)NC(Cc1ccccc1)C(=O)N2Cc1ccccc1 (stereo not shown)", 64],
  ["CCOC(=O)CN1C(=O)C(Cc2ccccc2)NC12CCN(C(=O)C1CC1)CC2 (stereo not shown)", 31],
  ["Cc1nn(-c2ccccc2)nc1C(=O)N1CCC2(CC1)NC(Cc1ccccc1)C(=O)N2C (stereo not shown)", 44],
  ["CCCCN1C(=O)C(Cc2ccccc2)NC12CCN(C(=O)CCC1CCCC1)CC2 (stereo not shown)", 69],
  ["COc1ccc(CC(=O)N2CCC3(CC2)NC(CCSC)C(=O)N3Cc2ccc(F)cc2)cc1 (stereo not shown)", 32],
  ["C=CCN1C(=O)C(CCSC)NC12CCN(C(=O)c1cnn(-c3ccccc3)c1CCC)CC2 (stereo not shown)", 43],
  ["CC(C)CC1NC2(CCN(C(=O)c3ccc4c(c3)OCO4)CC2)N(Cc2c(Cl)cccc2Cl)C1=O (stereo not shown)", 63],
  ["CCOC(=O)CN1C(=O)C(Cc2ccccc2)NC12CCN(C(=O)c1ccc(-c3ccccc3)cc1)CC2 (stereo not shown)", 57],
  ["C=CCN1C(=O)C(C(C)C)NC12CCN(C(=O)c1ccc(-c3ccccc3)cc1)CC2 (stereo not shown)", 34],
  ["CN1C(=O)C(Cc2ccccc2)NC12CCN(C(=O)CC(C)(C)C)CC2 (stereo not shown)", 34],
  ["C=CCN1C(=O)C(CCSC)NC12CCN(C(=O)c1c(F)c(F)c(F)c(F)c1F)CC2 (stereo not shown)", 39],
  ["CCOc1ccc(C(=O)N2CCC3(CC2)NC(CC(C)C)C(=O)N3Cc2ccccc2)cc1 (stereo not shown)", 46],
  ["COc1ccc(CC(=O)N2CCC3(CC2)NC(Cc2ccccc2)C(=O)N3C)cc1 (stereo not shown)", 30],
  ["C=CCN1C(=O)C(CCSC)NC12CCN(C(=O)c1cc(C(C)(C)C)nn1C)CC2 (stereo not shown)", 31],
  ["COC(=O)c1ccc(CN2C(=O)CNC23CCN(C(=O)c2ccc(C(C)(C)C)cc2)CC3)cc1", 51],
  ["CSCCC1NC2(CCN(C(=O)c3c(Cl)ccc(C)c3F)CC2)N(Cc2ccccc2)C1=O (stereo not shown)", 30],
  ["C=CCCC(=O)N1CCC2(CC1)NC(C(C)C)C(=O)N2CC=C (stereo not shown)", 31],
  ["CCCC(C)C(=O)N1CCC2(CC1)NC(CC(C)C)C(=O)N2CC(=O)OCC (stereo not shown)", 33],
  ["COc1ccc(OC)c(CC(=O)N2CCC3(CC2)NC(CCSC)C(=O)N3Cc2ccccc2F)c1 (stereo not shown)", 34],
  ["Cc1nnsc1C(=O)N1CCC2(CC1)NC(Cc1ccccc1)C(=O)N2Cc1ccccc1 (stereo not shown)", 30],
  ["CC(C)CC1NC2(CCN(C(=O)c3cc(C(F)(F)F)ccc3Cl)CC2)N(Cc2c(Cl)cccc2Cl)C1=O (stereo not shown)", 68],
  ["CCCCN1C(=O)C(Cc2ccccc2)NC12CCN(C(=O)c1cc(F)ccc1C(F)(F)F)CC2 (stereo not shown)", 38],
  ["CCOC(=O)CCC(=O)N1CCC2(CC1)NCC(=O)N2Cc1ccccc1F", 33],
  ["CCOC(=O)C(C)(C)C(=O)N1CCC2(CC1)NC(CCSC)C(=O)N2Cc1ccccc1[N+](=O)[O-] (stereo not shown)", 46],
  ["COC(=O)c1ccc(CN2C(=O)CNC23CCN(C(=O)c2snnc2C)CC3)cc1", 32],
  ["CCCCC(CC)C(=O)N1CCC2(CC1)NCC(=O)N2CCOc1ccccc1 (stereo not shown)", 35],
  ["CN1C(=O)C(Cc2ccccc2)NC12CCN(C(=O)COCc1ccccc1)CC2 (stereo not shown)", 45]
]}

* * *

Test system: batrachotoxin (BTX) binding site of the sodium channel
Assay: Affinity to the batrachotoxin (BTX) binding site of the sodium channel
Conditions: Table III; rat cerebrocortex synaptosomes; test concentration not given
Below is a list of entries, each paired with its recorded BTX inhibition value.

{"columns": ["compound", "BTX inhibition"],
 "data": [
  ["CSCCC1NC2(CCN(C(=O)c3cccc(Cl)c3F)CC2)N(Cc2cc(C)cc(C)c2)C1=O (stereo not shown)", 60],
  ["CC(C)CC1NC2(CCN(C(=O)c3cc(C(C)(C)C)nn3C)CC2)N(Cc2cccc(C#N)c2)C1=O (stereo not shown)", 39],
  ["Cc1oc(C(C)(C)C)cc1C(=O)N1CCC2(CC1)NC(C(C)C)C(=O)N2CCOc1ccccc1 (stereo not shown)", 52],
  ["COc1ccccc1C(=O)N1CCC2(CC1)NC(Cc1ccccc1)C(=O)N2Cc1ccccc1F (stereo not shown)", 85]
]}

* * *

Below is a list of entries, each paired with its recorded Uptake (NA), rat, 10 μM, % inhibition value.
Test system: NA transporter
Assay: Inhibition of noradrenaline uptake in rat brain synaptosomes
Assay type: biochemical
Conditions: Table III
property-name: Uptake (NA), rat, 10 μM, % inhibition (%)

{"columns": ["compound", "property-name", "measurement"],
 "data": [
  ["O=C1NC2(CCN(C(=O)c3ccc4ccccc4c3)CC2)NC1Cc1ccccc1 (centres unmarked) [Example 122]", "Uptake (NA), rat, 10 μM, % inhibition", 38],
  ["CCOc1ccccc1C(=O)N1CCC2(CC1)NCC(=O)N2Cc1ccccc1F [Example 280]", "Uptake (NA), rat, 10 μM, % inhibition", 35],
  ["Cc1ccc(C(=O)N2CCC3(CC2)NC(Cc2ccccc2)C(=O)N3C)cc1F (centres unmarked) [Example 148]", "Uptake (NA), rat, 10 μM, % inhibition", 32],
  ["O=C(c1ccc2nonc2c1)N1CCC2(CC1)NCC(=O)N2Cc1ccccc1F [Example 304]", "Uptake (NA), rat, 10 μM, % inhibition", 37],
  ["COc1ccccc1C(=O)N1CCC2(CC1)NC(Cc1ccccc1)C(=O)N2Cc1ccccc1F (centres unmarked) [Example 274]", "Uptake (NA), rat, 10 μM, % inhibition", 64],
  ["CC(C)CC1NC2(CCN(C(=O)c3cccnc3Cl)CC2)N(Cc2ccc(F)cc2)C1=O (centres unmarked) [Example 118]", "Uptake (NA), rat, 10 μM, % inhibition", 30],
  ["CC(C)C1NC2(CCN(C(=O)c3ccncc3)CC2)N(Cc2ccccc2)C1=O (centres unmarked) [Example 98]", "Uptake (NA), rat, 10 μM, % inhibition", 36],
  ["CSCCC1NC2(CCN(C(=O)c3cccc(F)c3)CC2)N(C)C1=O (centres unmarked) [Example 121]", "Uptake (NA), rat, 10 μM, % inhibition", 37]
]}

* * *

System: batrachotoxin (BTX) binding site of the sodium channel
Assay: Affinity to the batrachotoxin (BTX) binding site of the sodium channel
Settings: Table III; rat cerebrocortex synaptosomes; test concentration not given
property-name: BTX inhibition

{"columns": ["compound", "measurement"],
 "data": [
  ["O=C(c1ccc(-c2ccccc2)cc1)N1CCC2(CC1)NCC(=O)N2Cc1ccccc1", 39],
  ["CC(C)CC1NC2(CCN(C(=O)c3ccc(C(F)(F)F)c(F)c3)CC2)N(Cc2ccccc2)C1=O (centres unmarked)", 58],
  ["CSCCC1NC2(CCN(C(=O)C=Cc3cccc(C(F)(F)F)c3)CC2)N(C)C1=O (centres unmarked)", 33],
  ["CC(C)C1NC2(CCN(C(=O)C3COc4ccc(Cl)cc4C3)CC2)N(Cc2ccccc2C#N)C1=O (centres unmarked)", 60],
  ["CC(C)C1NC2(CCN(C(=O)c3ccccc3C(=O)OCc3ccccc3)CC2)N(Cc2ccccc2)C1=O (centres unmarked)", 50],
  ["CCCCN1C(=O)C(Cc2ccccc2)NC12CCN(C(=O)C1CCCCC1)CC2 (centres unmarked)", 42],
  ["CCOC(=O)CN1C(=O)C(Cc2ccccc2)NC12CCN(C(=O)CC(C)C)CC2 (centres unmarked)", 33],
  ["CC(C)C1NC2(CCN(C(=O)c3cccc(Cl)c3F)CC2)N(Cc2ccccc2C#N)C1=O (centres unmarked)", 32],
  ["Cc1nc(C(F)(F)F)ccc1C(=O)N1CCC2(CC1)NC(C(C)C)C(=O)N2CCOc1ccccc1 (centres unmarked)", 38],
  ["C=CCN1C(=O)C(CCSC)NC12CCN(C(=O)c1cccnc1SC)CC2 (centres unmarked)", 30],
  ["CCOC(=O)CN1C(=O)C(CCSC)NC12CCN(C(=O)c1ccc(C(C)(C)C)cc1)CC2 (centres unmarked)", 36],
  ["O=C(c1ccccc1C(F)(F)F)N1CCC2(CC1)NCC(=O)N2Cc1ccccc1F", 30],
  ["C#CCN1C(=O)C(CC(C)C)NC12CCN(C(=O)COc1ccc(Cl)cc1)CC2 (centres unmarked)", 41],
  ["CC(C)(C)CC(=O)N1CCC2(CC1)NC(Cc1ccccc1)C(=O)N2Cc1ccccc1 (centres unmarked)", 30],
  ["O=C(c1ccc(-c2ccccc2)cc1)N1CCC2(CC1)NCC(=O)N2Cc1ccccc1F", 70],
  ["Cc1cccc(C(=O)N2CCC3(CC2)NC(CC(C)C)C(=O)N3Cc2ccccc2F)c1 (centres unmarked)", 54],
  ["CCSc1ncccc1C(=O)N1CCC2(CC1)NC(CC(C)C)C(=O)N2CCCCOC(C)=O (centres unmarked)", 35]
]}
